- System: IGROV1 ovarian
- assay text: NCI tumour cell line growth inhibition, 48 h
Catalogue of compounds with associated TGI

Known results for compounds:
{"compound": "CC#CC(=O)N1CCC[C@H]1c1nc(-c2ccc(C(=O)Nc3ccccn3)cc2)c2c(N)nccn12", "assayed system": "IGROV1 ovarian", "TGI": "> 83.8 µM"}
{"compound": "O=C(/C=C/c1ccco1)Nc1ncc(Cc2ccc(F)cc2)s1", "assayed system": "IGROV1 ovarian", "TGI": "> 100 µM"}
{"compound": "C#Cc1ccc(NC(=O)c2ccc(/C=C/C(=O)c3nccn3C)cc2)cc1", "assayed system": "IGROV1 ovarian", "TGI": "0.884 µM"}
{"compound": "CC(=O)Oc1cccc2c1C(=O)c1c(OC(C)=O)cc(C)cc1C2=O", "assayed system": "IGROV1 ovarian", "TGI": "> 100 µM"}
{"compound": "CSc1c(C#N)c2n(c3ccccc3[n+]2C)c2ncccc12", "assayed system": "IGROV1 ovarian", "TGI": "> 100 µM"}
{"compound": "Cc1nc(C(N)=S)sc1C(=O)/C=C/c1cccc(O)c1", "assayed system": "IGROV1 ovarian", "TGI": "> 100 µM"}

Tell me the measured TGI of "CCCc1c2c3ccccc3nc-2nc2ccccn12" , please.
> 100 µM

Give its TGI value. Item: "CC(=O)OC[C@@]12C[C@H]3C(=O)C(C)(C)C[C@H]3[C@]1(C)[C@@H](OC(C)=O)[C@]1(O)[C@H]([C@@H](OC(=O)c3ccccc3)[C@@H](C)[C@H]1OC(C)=O)[C@H]2OC(C)=O"
> 20 µM

What value of TGI has been recorded for this entry: COc1nc(=O)n(C2CC(N=[N+]=[N-])C(CO)O2)cc1C (stereo unspecified)
> 100 µM

Item under review: "CN1CCN(c2ccc3[nH]c(C4=C(O)c5nc(CO)n(C)c5C(=O)C4=O)nc3n2)CC1" . Reported TGI?
> 100 µM

Tell me the measured TGI of CC12ON=C(c3ccccc3)N1C=CN1C(c3ccccc3)=NOC12 (stereo unspecified) , please.
> 100 µM

* * *

- Test system: HOP-62 NSCLC
- assay text: NCI tumour cell line growth inhibition, 48 h
metric name: TGI (µM)
Answer format: numeric, µM implied, no suffix.

// worked examples, TGI included
{"compound": "Cc1ccc(N2C(=O)/C(=C3\\Sc4c(nc(C)[nH]c4=O)N3c3ccccc3)SC2=S)cc1", "assayed system": "HOP-62 NSCLC", "observed": 25.9}
{"compound": "O=c1[nH]c(=S)[nH]c(O)c1/C=C1\\C=CC=N1", "assayed system": "HOP-62 NSCLC", "observed": 97.6}
{"compound": "Cc1cn(C2CC(N=[N+]=[N-])C(CO[Si](C)(C)C(C)(C)C)O2)c(=O)[nH]c1=O (stereo not given)", "assayed system": "HOP-62 NSCLC", "observed": 34.1}

# input for lookup
Please give the measured TGI for this compound: C=C(Cl)C(Cl)(CBr)CCC(Cl)C(C)(C)Cl (stereo not given)
4.04

* * *

- System: SF-539 CNS
- assay text: NCI tumour cell line growth inhibition, 48 h; in the data active = GI50 below about 0.43 µM; inactive = the rest
Use one of these outcomes when replying: active, inactive

Here are 6 compounds together with their reported answers.
{"compound": "C#Cc1ccc(NC(=O)c2ccc(/C=C/C(=O)c3nccn3C)cc2)cc1", "assigned category": "active"}
{"compound": "C[C@@H]1CC[C@@]2(OC1)O[C@H]1C[C@H]3[C@@H]4CC=C5C[C@@H](O[C@@H]6O[C@H](CO)[C@@H](O[C@@H]7O[C@@H](CO)[C@H](O)[C@H]7O)[C@H](O)[C@H]6O[C@@H]6O[C@@H](C)[C@H](O)[C@@H](O)[C@H]6O)CC[C@]5(C)[C@H]4CC[C@]3(C)[C@H]1[C@@H]2C", "assigned category": "inactive"}
{"compound": "Oc1c(CN2CCCC2)cc(COCc2ccccc2)c2cccnc12", "assigned category": "inactive"}
{"compound": "O=c1[nH]c(-c2ccc(C(F)(F)F)cc2)nc2c1CSCC2", "assigned category": "inactive"}
{"compound": "Cn1c(=O)c2[nH]c(COc3ccc(C(C)(C)C)cc3)nc2n(C)c1=O", "assigned category": "inactive"}
{"compound": "Oc1ccccc1-n1c(-c2ccccc2)ccc1-c1ccccc1", "assigned category": "inactive"}

How was COc1ccc(C(O)c2cc3c(N)c(C(=O)Nc4cccc(Br)c4)sc3nc2C)cc1 (stereo not given) classified in this test?
active

Hi, do you know how "CCS/C(Nc1ccccc1)=C(\C#N)C(=O)Nc1ccc(OC)cc1" came out in this test?
inactive

Recorded test outcome, item "O=C(NNS(=O)(=O)c1cc(C(F)(F)F)cc(C(F)(F)F)c1)c1cnn(-c2ccc(Cl)cc2)c1C(F)(F)F"
inactive

Short answer needed: outcome of this test for "CC(=O)/C(C)=N/N/C(N)=N\S(=O)(=O)c1cc(C(=O)Nc2ccccc2)c(Cl)cc1SCc1ccccc1" ?
inactive

Which result was noted for this compound in the test: "CC(C)(C)CC(C)(C)c1ccc(OCCOCCSC(=N)N)cc1"
inactive

// param item: "COc1ccc(NC(=O)c2cc(OC)c(OC)c(OC)c2)cc1O" ; yields the recorded call
inactive

Each compound tested received a call. Report the one for "N#Cc1nc(-c2ccccc2)oc1S(=O)(=O)N1CCOCC1" .
inactive

Record request — test call for Cn1cnc([N+](=O)[O-])c1Sc1ncnc2c1ncn2C1OC(CO)C(O)C1O (stereo not given)
inactive

Could you check what this test reported for "CC/C=C\CCC/C=C1/C(=O)C=C[C@@H]1C/C=C\CCCC(=O)O" ?
inactive

Assay result, entry C=C(C)[C@H]1CC/C(C)=C/CCC(C)C(=O)CC/C(CO)=C\[C@@H]1O (stereo not given in full) — outcome?
inactive

Recorded call for "Fc1ccc(-c2ncn(C3CCNCC3)c2-c2ccnc(Oc3cccc(F)c3)n2)cc1" ?
inactive

In this assay, the call recorded for "COc1ccc([C@H]2O[C@@H](CO)C[C@]2(O)c2ccc(OC)cc2)cc1" was what?
inactive

Check the results log: what was the call for "c1ccc(-c2nc(N3CCNCC3)c3nc(-c4ccccc4)oc3n2)cc1" ?
inactive

Each compound tested received a call. Report the one for "COC(=O)CCC1=C(C)c2cc3[n-]c(cc4nc(cc5[n-]c(cc1n2)c(CCC(=O)OC)c5C)C=C4C)cc3C.[Cd+2]" .
inactive
